molecular target: DAPK1 (Homo sapiens, UniProt P53355); construct: purchased ReactionBiology; assay: Kinase activity test (ReactionBiology), % enzyme activity relative to DMSO; format: biochemical; conditions: DAPK1; 1 uM; Average; read-out: % Enzyme Activity (relative to DMSO controls), Average
Sequence (P53355 whole entry): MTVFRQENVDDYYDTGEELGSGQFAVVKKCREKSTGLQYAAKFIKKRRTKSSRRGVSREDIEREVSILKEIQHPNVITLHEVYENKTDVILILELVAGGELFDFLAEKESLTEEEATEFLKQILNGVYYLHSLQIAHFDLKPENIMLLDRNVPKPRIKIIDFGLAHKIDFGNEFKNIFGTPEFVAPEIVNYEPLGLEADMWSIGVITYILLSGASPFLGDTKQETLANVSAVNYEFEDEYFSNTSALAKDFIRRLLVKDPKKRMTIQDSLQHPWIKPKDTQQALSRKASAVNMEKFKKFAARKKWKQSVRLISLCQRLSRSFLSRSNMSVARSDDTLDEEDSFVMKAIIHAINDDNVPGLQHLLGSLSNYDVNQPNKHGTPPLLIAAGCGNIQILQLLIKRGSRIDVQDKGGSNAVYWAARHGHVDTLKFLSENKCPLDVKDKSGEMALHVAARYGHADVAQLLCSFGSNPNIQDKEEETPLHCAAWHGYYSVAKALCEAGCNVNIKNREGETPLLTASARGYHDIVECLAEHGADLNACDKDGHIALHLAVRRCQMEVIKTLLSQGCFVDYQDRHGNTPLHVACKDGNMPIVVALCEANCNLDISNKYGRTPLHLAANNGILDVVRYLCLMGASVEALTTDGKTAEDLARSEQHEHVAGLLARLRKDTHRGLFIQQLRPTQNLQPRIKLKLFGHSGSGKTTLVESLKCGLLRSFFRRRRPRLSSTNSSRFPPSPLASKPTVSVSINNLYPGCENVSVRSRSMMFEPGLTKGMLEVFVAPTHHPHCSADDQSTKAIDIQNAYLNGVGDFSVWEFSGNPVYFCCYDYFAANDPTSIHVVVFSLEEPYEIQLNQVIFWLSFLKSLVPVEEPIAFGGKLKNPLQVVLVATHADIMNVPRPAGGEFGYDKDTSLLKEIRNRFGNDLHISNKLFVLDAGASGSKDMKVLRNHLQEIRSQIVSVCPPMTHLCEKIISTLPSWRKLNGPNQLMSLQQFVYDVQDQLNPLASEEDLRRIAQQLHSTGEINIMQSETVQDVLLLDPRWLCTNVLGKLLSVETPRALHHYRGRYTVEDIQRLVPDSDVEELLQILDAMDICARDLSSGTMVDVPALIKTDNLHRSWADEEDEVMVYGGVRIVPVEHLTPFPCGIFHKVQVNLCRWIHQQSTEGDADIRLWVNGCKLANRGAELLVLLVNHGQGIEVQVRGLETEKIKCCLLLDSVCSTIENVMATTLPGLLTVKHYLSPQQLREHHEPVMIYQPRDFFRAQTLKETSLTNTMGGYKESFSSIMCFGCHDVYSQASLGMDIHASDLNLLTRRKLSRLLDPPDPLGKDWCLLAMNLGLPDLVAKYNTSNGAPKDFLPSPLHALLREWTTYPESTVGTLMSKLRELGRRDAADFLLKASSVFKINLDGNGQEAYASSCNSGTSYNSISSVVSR
Collected remaining activity at 1 µM values appear next to each entry.
observation_type: remaining activity at 1 µM (%)

compound: CC(C)(C)NC(=O)[C@@H]1C[C@@H]2CCCC[C@@H]2CN1C[C@@H](O)[C@H](Cc1ccccc1)NC(=O)[C@H](CC(N)=O)NC(=O)c1ccc2ccccc2n1 [Saquinavir, reference compound]
target_or_system: DAPK1 (Homo sapiens, UniProt P53355)
observation_type: remaining activity at 1 µM
result_units: %
observed_value: 87.1
//
compound: Cc1cccc(C)c1OCC(=O)N[C@@H](Cc1ccccc1)[C@@H](O)C[C@H](Cc1ccccc1)NC(=O)[C@H](C(C)C)N1CCCNC1=O [Lopinavir, reference compound]
target_or_system: DAPK1 (Homo sapiens, UniProt P53355)
observation_type: remaining activity at 1 µM
result_units: %
observed_value: 90.4
//
compound: Cc1nc(Nc2ncc(C(=O)Nc3c(C)cccc3Cl)s2)cc(N2CCN(CCO)CC2)n1 [Dasatinib, reference compound]
target_or_system: DAPK1 (Homo sapiens, UniProt P53355)
observation_type: remaining activity at 1 µM
result_units: %
observed_value: 92
//
compound: CC(C)c1nc(CN(C)C(=O)N[C@H](C(=O)N[C@@H](Cc2ccccc2)C[C@H](O)[C@H](Cc2ccccc2)NC(=O)OCc2cncs2)C(C)C)cs1 [Ritonavir, reference compound]
target_or_system: DAPK1 (Homo sapiens, UniProt P53355)
observation_type: remaining activity at 1 µM
result_units: %
observed_value: 92.6
